- TARGET_ENTITY: human TREM2/DAP12 fusion protein (human, UniProt O43914 41-113, limits assumed)
- Sequence (O43914 other isoform, or with tags, fused parts or gaps limits assumed): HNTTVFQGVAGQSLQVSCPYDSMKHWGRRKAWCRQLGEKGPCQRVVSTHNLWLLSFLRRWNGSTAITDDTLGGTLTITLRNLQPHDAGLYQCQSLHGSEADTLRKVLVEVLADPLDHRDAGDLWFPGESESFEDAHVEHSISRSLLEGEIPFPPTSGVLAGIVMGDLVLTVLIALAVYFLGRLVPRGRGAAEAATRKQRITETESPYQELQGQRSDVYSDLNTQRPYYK
- TEST_DESCRIPTION: cell-based or functional assay
# Lookup of reported Reporter assay soluble IgG (EC50, nM) keyed by entry

The examples below pair each entry with its known result.
AL2p-31 (antibody, V domains shown, Fab and IgG formats under one id) VH: QVQLVQSGAEVKKPGSSVKVSCKASGYAFSSQWMNWVRQAPGQGLEWMGRIYPGGGDTNYARKFQGRVTITADESTSTAYMELSSLRSEDTAVYYCARLLRNQPGESYAMDYWGQGTLVTVSS VL: GVVMTQTPLSLSVTPGQPASISCRSSQSLVHSNGYTYLHWYLQKPGQSPQLLIYKVSNRRSGVPDRFSGSGSGTDFTLKISRVEAEDVGVYYCSQSTRVPYTFGQGTKLEIK : 11.4 nM
AL2p-58 (antibody, V domains shown, Fab and IgG formats under one id (explicit huIgG1 is m95, PSEG is m96)) VH: QVQLVQSGAEVKKPGASVKVSCKASGYAFSSQWMNWVRQAPGQRLEWIGRIYPGGGDTNYAGKFQGRVTITADTSASTAYMELSSLRSEDTAVYYCARLLRNQPGESYAMDYWGQGTLVTVSS VL: DVVMTQSPDSLAVSLGERATINCRSSQSLVHSNRYTYLHWYQQKPGQSPKLLIYKVSNRFSGVPDRFSGSGSGTDFTLKISRVEAEDVGVYYCSQSTRVPYTFGQGTKLEIK : 14 nM

// switching to the query binder
-- ask Please give the measured Reporter assay soluble IgG (EC50, nM) for this binder: AL2p-47 (antibody, V domains shown, Fab and IgG formats under one id (explicit huIgG1 is m97); also called AL2-47) VH: QVQLVQSGAEVKKPGSSVKVSCKASGYAFSSDWMNWVRQAPGQGLEWMGRIYPGEGDTNYARKFHGRVTITADESTSTAYMELSSLRSEDTAVYYCARLLRNKPGESYAMDYWGQGTLVTVSS VL: DVVMTQTPLSLSVTPGQPASISCRTSQSLVHSNAYTYLHWYLQKPGQSPQLLIYKVSNRVSGVPDRFSGSGSGTDFTLKISRVEAEDVGVYYCSQSTRVPYTFGQGTKLEIK
-- reply 105 nM
